Quick reference: IC50 of the listed items.
- Target Of Assay: full-length human Hpk1 (Homo sapiens)
- Construct: full-length human Hpk1 with an N-terminal Glutatione S-transferase (GST) tag; GST (N); made in house; host or cells: baculovirus/insect cell expression system
- Sequence (Q92918 whole entry): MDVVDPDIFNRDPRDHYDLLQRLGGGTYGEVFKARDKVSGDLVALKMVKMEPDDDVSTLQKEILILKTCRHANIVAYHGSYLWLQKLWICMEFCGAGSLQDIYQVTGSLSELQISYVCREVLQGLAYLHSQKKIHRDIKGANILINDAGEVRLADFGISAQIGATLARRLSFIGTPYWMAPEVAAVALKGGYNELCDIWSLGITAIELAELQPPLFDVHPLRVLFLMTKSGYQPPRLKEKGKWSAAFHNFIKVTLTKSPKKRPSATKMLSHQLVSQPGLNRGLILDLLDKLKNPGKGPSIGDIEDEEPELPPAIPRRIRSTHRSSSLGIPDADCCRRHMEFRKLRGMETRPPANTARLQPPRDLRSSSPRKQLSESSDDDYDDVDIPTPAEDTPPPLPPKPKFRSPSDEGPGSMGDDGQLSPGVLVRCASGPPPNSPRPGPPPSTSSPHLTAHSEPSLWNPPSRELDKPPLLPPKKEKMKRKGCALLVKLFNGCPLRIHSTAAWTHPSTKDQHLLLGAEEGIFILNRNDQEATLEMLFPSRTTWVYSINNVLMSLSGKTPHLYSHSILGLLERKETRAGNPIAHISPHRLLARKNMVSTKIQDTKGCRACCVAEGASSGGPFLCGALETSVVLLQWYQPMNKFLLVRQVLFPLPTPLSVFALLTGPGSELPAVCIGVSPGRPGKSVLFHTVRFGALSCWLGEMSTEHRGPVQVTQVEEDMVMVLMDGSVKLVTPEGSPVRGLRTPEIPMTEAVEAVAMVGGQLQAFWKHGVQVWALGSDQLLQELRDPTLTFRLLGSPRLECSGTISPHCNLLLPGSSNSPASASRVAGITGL
- Protocol Description: HPK1 kinase assay (ADP Glo)
- Assay type: biochemical
- Study Conditions: GST-Hpk1, 75 μM ATP solution added, ADP Glo luminescence; read-out: Hpk1 biochemical (pIC50) (converted)

Compound	IC50, nM
CN(C)Cc1cc(-c2cnc3[nH]cc(C(=O)NCC4CCC(=O)N4C)c3c2)ccc1C1CCOCC1 (stereo not shown)	38.9
CC(C)C(O)CNC(=O)c1c[nH]c2ncc(-c3ccc(C4CCOCC4)c(CN(C)C)c3)cc12 (stereo not shown)	21.9
CC(C)[C@H](CO)CNC(=O)c1c[nH]c2ncc(-c3ccc(C4CCOCC4)c(CN(C)C)c3)cc12 (single isomer, unassigned) [Co. 31a]	3.39
CN(C)Cc1cc(-c2cnc3[nH]cc(C(=O)NCC(CO)C4CC4)c3c2)ccc1C1CCOCC1 (stereo not shown)	12
CN(C)Cc1cc(-c2cnc3[nH]cc(C(=O)NCc4ncco4)c3c2)ccc1C1CCOCC1	10.2
Cc1nnc(CNC(=O)c2c[nH]c3ncc(-c4ccc(C5CCOCC5)c(CN(C)C)c4)cc23)o1	33.9
Cc1c[nH]c2ncc(-c3ccc(C4CCOCC4)c([C@@H]4COCCN4)c3)cc12	4.47
